Tested on: K562
Assay: NCI tumour cell line growth inhibition, 48 h
Active and inactive are the calls of the source. Rule as the data show it: active = GI50 up to about 1.1 µM and inactive = higher. Where a SMILES comes first, the peptide text is derived from it. [ ]: non-standard residue; d: D form. The star is where a group is joined. ξ: configuration not given here. ξF = NC(Cc1ccccc1)C(=O)O; Cbz = O=C(OCc1ccccc1)*; Aib = CC(C)(N)C(=O)O; NHNH2 = NN*
Labels: active, inactive

* Nc1ccc(/N=N/c2c(S(=O)(=O)O)cc3ccccc3c2S(=O)(=O)O)cc1 | inactive
* COc1ccc(/C(=N/O)c2ccccc2C2=Nc3ccccc3C(NCc3ccccc3)O2)cc1C (configuration not stated) | inactive
* CC(C)NC(NC(C)C)=C(S(=O)(=O)C(F)(F)C(F)(F)C(F)(F)C(F)(F)F)S(=O)(=O)C(F)(F)C(F)(F)C(F)(F)C(F)(F)F | inactive
* CC(C)(NC(=O)OCc1ccccc1)C(=O)NC(Cc1ccccc1)C(=O)NN (configuration not stated) (Cbz-[Aib]-[ξF]-NHNH2) | inactive
* c1cc(-c2csc(-c3ccsc3)c2)cs1 | inactive
* CCOC(=O)C(C)OC(=O)c1ccc(C)cc1 (configuration not stated) | inactive
* NC(=O)c1cccc(C2OC(COP(=O)(O)O)C(O)C2O)c1 (configuration not stated) | inactive
* O=C(CCBr)N1CCN(C(=O)CCBr)CC1 | inactive
* CC1(C)C2C=CC1C(=O)CC2 (configuration not stated) | inactive
* COc1cc(/C=C/C(=O)OC[C@H](Br)[C@H](OC(C)=O)c2ccc3c(c2)OCO3)cc(OC)c1OC | inactive
* CCC1=C(CC2NCCc3ccccc32)CC2c3cc(OC)c(OC)cc3CCN2C1 (configuration not stated) | active
* C=CC[P@]1(=O)O[C@H](c2ccccc2)[C@H](C)N1C | inactive
* O=C1C=CC(=O)c2c1ccc1c3ccccc3n(-c3cccc([N+](=O)[O-])c3)c21 | active
* CCC1=C(CC2NCCc3cc(OC)c(OC)cc32)CC2c3ccccc3CCN2C1 (configuration not stated) | inactive
* Sc1nnc(COc2ccc(Cl)cc2)o1 | inactive
* N#C/C1=C(\N)CCSSSC1 | inactive
* CN1CCc2c(sc3ncn(Nc4ccc(F)cc4)c(=N)c23)C1 | inactive
* O=C(O)c1nc2ccc(C(F)(F)F)cc2nc1Nc1ccc(F)cc1 | inactive
* COc1cc(C2c3cc4c(cc3[C@@H](Nc3ccccc3)C3CO[C@@H](OC)[C@H]23)OCO4)cc(OC)c1O (some centres not stated) | inactive
* CN(C)CCNC(=O)c1cccc2c1nc(-c1ccccc1)c1ccccc12 | inactive
* O=C(c1c(F)c(F)c(F)c(F)c1F)N1CCN(C(=O)c2c(F)c(F)c(F)c(F)c2F)C1=S | inactive
* COC(=O)c1ccc2[nH]c3c(c2c1)CC(=O)Nc1ccccc1-3 | inactive

###

Tested on: DU-145
Test: NCI tumour cell line growth inhibition, 48 h
Active and inactive are the calls of the source. Cut-off read from the data, not from the text of the source: active = GI50 up to about 1.1 µM and inactive = higher.
Parameter: GI50. Scope: all listed entries.
OBSERVABLE: GI50

• O=C(O)/C(=C\c1ccc(O)cc1)c1cccc2ccccc12 = > 100 µM (inactive)
• COC(=O)CSSCc1ccc([N+](=O)[O-])cc1 = 19.5 µM (inactive)
• O=c1c(Br)c(-c2ccccc2)[s+]([O-])c2ccccc12 (centres undefined) = 14.2 µM (inactive)
• CN(C)CCNc1ccc2nnn3c4ccc(O)cc4c(=O)c1c23 = 6.31 µM (inactive)
• CC(C)=CC[C@]12CCN(C)[C@H]1N(S(=O)(=O)c1ccccc1)c1ccccc12 = > 30.8 µM (inactive)
• c1ccc([P+](c2ccccc2)(c2ccccc2)c2ccc([P+](c3ccccc3)(c3ccccc3)c3ccccc3)cc2)cc1 = 52.8 µM (inactive)
• NC(=O)CNC(=O)[C@@H]1CC(OCCC(=O)O)CN1C(=O)C1CCCN1C(=O)OCc1ccccc1 (some centres undefined) = > 100 µM (inactive)
• OCCO[P+]1(OCCO)n2c3ccc2C(c2ccccc2)=C2C=CC(=N2)C(c2ccccc2)=c2ccc(n21)=C(c1ccccc1)C1=NC(=C3c2ccccc2)C=C1 = 0.0316 µM (active)
• CCOC(=O)c1c(N2CCCC2)ncn(C)c1=S = > 100 µM (inactive)
• CC(C)[Si](OC1=C(C(=O)N(C)c2ccccc2Cl)CCC1)(C(C)C)C(C)C = 22 µM (inactive)
• COc1ccccc1NC(=O)CC(=O)NN = > 100 µM (inactive)
• O=C(CNc1ccc(Cl)cc1Cl)Nn1c(-c2ccccc2)nc2ccccc2c1=O = 14.5 µM (inactive)
• OCC1CCCCN1Cc1nc2cc(Cl)ccc2[nH]1 (centres undefined) = > 100 µM (inactive)
• COC(=O)[C@]1(CCC(C)=O)C(=O)C=CN([C@H](C)c2ccccc2)[C@@H]1Cc1ccc(OC)c(OCc2ccccc2)c1I = 16.7 µM (inactive)
• CC[C@@]1(O)C(=O)OCc2c1cc1n(c2=O)Cc2c-1nc1ccc(N)cc1c2CC[Si](C)(C)C = < 0.01 µM (active)
• COC1CC(OC2C(C)OC(OC3C(C)OC(OC4C(C)OC(O[C@H]5CC[C@@]6(C)C(=CC[C@]7(O)[C@@H]6C[C@@H](O)[C@@]6(C)[C@]7(O)CC[C@@]6(O)C(C)=O)C5)CC4OC)CC3OC)CC2OC)OC(C)C1O (some centres undefined) = > 12.5 µM (inactive)
• CNC(=S)/C(C#N)=C(\N)N1CCCC1 = > 100 µM (inactive)
• Cc1ccc2cc3c(ccc4ccccc43)c3c2c1CC3 = > 100 µM (inactive)
• CCCc1cc(=O)oc2c(C=O)c(O)cc(O)c12 = 27.5 µM (inactive)

###

Test system: CCRF-CEM
Test: NCI tumour cell line growth inhibition, 48 h
Active and inactive are the calls of the source. No stated cut-off is given here; in the data, active = GI50 up to about 1.1 µM and inactive = higher.
OBSERVABLE: GI50

• O=C(NNC(=S)Nc1ccccc1)c1ccccc1Nc1ccccc1C(=O)NNC(=S)Nc1ccccc1 = 76.4 µM (inactive)
• CC(C)NC(NC(C)C)=C(S(=O)(=O)C(F)(F)C(F)(F)C(F)(F)C(F)(F)F)S(=O)(=O)C(F)(F)C(F)(F)C(F)(F)C(F)(F)F = > 100 µM (inactive)
• CN(C(=O)C1=CCC2(CC1)OCCO2)c1ccccc1OS(=O)(=O)C(F)(F)F = 43.2 µM (inactive)
• COc1ccccc1NC(=O)CC(=O)NN = > 100 µM (inactive)
• COc1cc(-c2cc(O)c3ccccc3n2)cc(OC)c1OC = > 75 µM (inactive)

###

System: HOP-62
Experiment: NCI tumour cell line growth inhibition, 48 h
Activity calls are given as the source filed them. Cut-off read from the data, not from the text of the source: active = GI50 up to about 1.1 µM and inactive = higher.
// reported GI50 for each item listed
OBSERVABLE: GI50

* O=C(C#Cc1cnc(O)nc1O)c1ccccc1Cl | > 100 µM (inactive)
* COc1c(N2CCCCC2)c2c(=O)c3ccccc3oc2c2cc(C)oc12 | 9.91 µM (inactive)
* CC1(C)Oc2ccc3c(=O)cc(-c4cccs4)oc3c2C1C(=O)O (centres undefined) | > 100 µM (inactive)
* CC(=O)O[C@H]1C(=O)[C@@]2(C)C(C(OC(=O)c3ccccc3)[C@]3(O)C[C@H](OC(=O)C(OC(=O)CCCC(=O)NCCCN(C)C)C(NC(=O)c4ccccc4)c4ccccc4)C(C)=C1C3(C)C)C1(OC(C)=O)COC1C[C@@H]2O (some centres undefined) | 0.016 µM (active)

###

Tested on: KM12
Assay: NCI tumour cell line growth inhibition, 48 h
Active and inactive are the calls of the source. No stated cut-off is given here; in the data, active = GI50 up to about 1.1 µM and inactive = higher.
Outcome codes: TRUE (active), FALSE (inactive)

• OCCCNCC(O)c1ccc(OCc2ccccc2)c(OCc2ccccc2)c1 (stereo unspecified) = FALSE
• CC(C)=CCC/C(C)=C/CC/C(C)=C/CCN(C)CCO = FALSE
• Cc1cc2c(s1)C(N)CC2=O (stereo unspecified) = FALSE
• COc1cccc2c3ccccc3c3nc[nH]c3c12 = FALSE
• COc1cc2c(c(OC)c1OC)-c1ccc(SC)c(=O)cc1[C@@H](NC(=O)c1ccc(OC(C)=O)cc1)CC2 = TRUE
• COc1ccc(C(=O)c2cc(OC)c(OC)c(OC)c2)cc1 = TRUE

###

Tested on: OVCAR-3
Assay: NCI tumour cell line growth inhibition, 48 h
The source made the active and inactive calls. No stated cut-off is given here; in the data, active = GI50 up to about 1.1 µM and inactive = higher.
OBSERVABLE: GI50

* O=C1CN2Cc3cc(N4CCOCC4)ccc3N=C2N1 | 30.1 µM (inactive)
* C[n+]1[n-]o/c(=N\N=O)c1-c1cc(-c2/c(=N/N=O)o[n-][n+]2C)cc(-c2/c(=N\N=O)o[n-][n+]2C)c1 | > 100 µM (inactive)
* [N-]=[N+]=NC(c1cn(C2CC(O)C(CO)O2)c(=O)[nH]c1=O)C(Cl)I (centres undefined) | > 100 µM (inactive)
* O=C(Cc1nc2ncccc2[nH]c1=O)c1c[nH]c2ccccc12 | 18 µM (inactive)
* Cc1ccc([N+](=O)[O-])cc1S(=O)(=O)Nc1ccc(C2=NN(S(=O)(=O)c3cc([N+](=O)[O-])ccc3C)C(c3ccccc3)C2)cc1 (centres undefined) | 26 µM (inactive)
* O=c1[nH]nc(Cc2ccccc2)n1/N=C\CC/C=N\n1c(Cc2ccccc2)n[nH]c1=O | 61.7 µM (inactive)
* CC(=O)Oc1c(OC(C)=O)c(-c2ccc(O)c(O)c2)c(O)c(O)c1-c1ccc(O)cc1 | > 100 µM (inactive)
* Cc1cc(N(CC(C)Br)CC(C)Br)ccc1/N=N/c1ccccc1C(=O)O (centres undefined) | 16.9 µM (inactive)
* CCOC(=O)CCn1[nH]c(=O)c(Cl)c(Cl)c1=O | > 100 µM (inactive)
